target: NS3 protease (Hepatitis C virus subtype 1b, UniProt Q0ZMF1, R155K); assay: Inhibition of Hepatitis C virus genotype 1b NS3/4A protease R155K mutant assessed as substrate cleavage using Ac-C(Eu)DDMEEAbu(COO)ASK(QSY7)-amide as substrate incubated for 30 mins prior to substrate addition by time-resolved fluorescence assay
assay-readout: IC50 (nM)
Give the value in nM but do not write nM after it.

C=C[C@@H]1C[C@]1(NC(=O)[C@@H]1C[C@@H]2CN1C(=O)[C@H](C1CCCCC1)NC(=O)O[C@@H]1C[C@H]1CCCCCc1c(nc3ccccc3c1OC1CCNCC1)O2)C(=O)NS(=O)(=O)C1(C)CC1	0.02
C=C[C@@H]1C[C@]1(NC(=O)[C@@H]1C[C@@H]2CN1C(=O)[C@H](C1CCCCC1)NC(=O)O[C@@H]1C[C@H]1CCCCCc1c(nc3ccccc3c1OCCCN1CC(F)C1)O2)C(=O)NS(=O)(=O)C1(C)CC1	0.16
C=C[C@@H]1C[C@]1(NC(=O)[C@@H]1C[C@@H]2CN1C(=O)[C@H](C(C)(C)C)NC(=O)O[C@@H]1C[C@H]1CCCCCc1nc3ccc(OC)cc3nc1O2)C(=O)NS(=O)(=O)C1CC1 [GRAZOPREVIR ANHYDROUS]	0.07
C=C[C@@H]1C[C@]1(NC(=O)[C@@H]1C[C@@H]2CN1C(=O)[C@H](C1CCCCC1)NC(=O)O[C@@H]1C[C@H]1CCCCCc1c(nc3ccccc3c1OC1CCN(C)CC1)O2)C(=O)NS(=O)(=O)C1(C)CC1	0.06
C=C[C@@H]1C[C@]1(NC(=O)[C@@H]1C[C@@H]2CN1C(=O)[C@H](C1CCCCC1)NC(=O)O[C@@H]1C[C@H]1CCCCCc1c(nc3ccccc3c1OC1CCN(C(=O)OC(C)(C)C)CC1)O2)C(=O)NS(=O)(=O)C1(C)CC1	1.31

**Query** Name the reported IC50 value associated with the molecule C=C[C@@H]1C[C@]1(NC(=O)[C@@H]1C[C@@H]2CN1C(=O)[C@H](C1CCCCC1)NC(=O)O[C@@H]1C[C@H]1CCCCCc1c(nc3ccccc3c1OC1CCN(CC3CC3)CC1)O2)C(=O)NS(=O)(=O)C1(C)CC1
**Result** 0.03

**Query** Name the reported IC50 value associated with the molecule C=C[C@@H]1C[C@]1(NC(=O)[C@@H]1C[C@@H]2CN1C(=O)[C@H](C1CCCCC1)NC(=O)O[C@@H]1C[C@H]1CCCCCc1c(nc3ccccc3c1O[C@H]1C[C@H]3CC[C@@H](C1)N3C)O2)C(=O)NS(=O)(=O)C1(C)CC1
**Result** 0.1

**Query** Name the reported IC50 value associated with the molecule C=C[C@@H]1C[C@]1(NC(=O)[C@@H]1C[C@@H]2CN1C(=O)[C@H](C1CCCCC1)NC(=O)O[C@@H]1C[C@H]1CCCCCc1c(nc3ccccc3c1O[C@H]1C[C@H]3CC[C@@H](C1)N3CCOC)O2)C(=O)NS(=O)(=O)C1(C)CC1
**Result** 0.05

* * *

target: NS3 protease (Hepatitis C virus subtype 1b, UniProt Q0ZMF1, D168Y); test: Inhibition of Hepatitis C virus genotype 1b NS3/4A protease D168Y mutant assessed as substrate cleavage using Ac-C(Eu)DDMEEAbu(COO)ASK(QSY7)-amide as substrate incubated for 30 mins prior to substrate addition by time-resolved fluorescence assay
log10 of IC50 by entry:
Could you please treat all values as log10 of IC50 in pM?

Some entries whose results are on file:
C=C[C@@H]1C[C@]1(NC(=O)[C@@H]1C[C@@H]2CN1C(=O)[C@H](C1CCCCC1)NC(=O)O[C@@H]1C[C@H]1CCCCCc1c(nc3ccccc3c1OCCCN1CCOCC1)O2)C(=O)NS(=O)(=O)C1(C)CC1	3.00
C=C[C@@H]1C[C@]1(NC(=O)[C@@H]1C[C@@H]2CN1C(=O)[C@H](C(C)(C)C)NC(=O)O[C@@H]1C[C@H]1CCCCCc1c(nc3ccccc3c1O[C@H]1C[C@H]3CC[C@@H](C1)N3CCOC)O2)C(=O)NS(=O)(=O)C1(C)CC1	1.78
C=C[C@@H]1C[C@]1(NC(=O)[C@@H]1C[C@@H]2CN1C(=O)[C@H](C1CCCCC1)NC(=O)O[C@@H]1C[C@H]1CCCCCc1c(nc3ccccc3c1OC1CCNCC1)O2)C(=O)NS(=O)(=O)C1(C)CC1	1.95
C=C[C@@H]1C[C@]1(NC(=O)[C@@H]1C[C@@H]2CN1C(=O)[C@H](C1CCCCC1)NC(=O)O[C@@H]1C[C@H]1CCCCCc1c(nc3ccccc3c1O[C@H]1C[C@H]3CC[C@@H](C1)N3C)O2)C(=O)NS(=O)(=O)C1(C)CC1	2.43

**Query** Please tell me: log10 of IC50 of C=C[C@@H]1C[C@]1(NC(=O)[C@@H]1C[C@@H]2CN1C(=O)[C@H](C1CCCCC1)NC(=O)O[C@@H]1C[C@H]1CCCCCc1c(nc3ccccc3c1OC1CCN(CCS(C)(=O)=O)CC1)O2)C(=O)NS(=O)(=O)C1(C)CC1 , system NS3 protease (Hepatitis C virus subtype 1b, UniProt Q0ZMF1, D168Y)?
**Result** 3.32

**Query** Please tell me: log10 of IC50 of C=C[C@@H]1C[C@]1(NC(=O)[C@@H]1C[C@@H]2CN1C(=O)[C@H](C1CCCCC1)NC(=O)O[C@@H]1C[C@H]1CCCCCc1c(nc3ccccc3c1OCCCN1CCN(C)CC1)O2)C(=O)NS(=O)(=O)C1(C)CC1 , system NS3 protease (Hepatitis C virus subtype 1b, UniProt Q0ZMF1, D168Y)?
**Result** 2.58

**Query** Please tell me: log10 of IC50 of C=C[C@@H]1C[C@]1(NC(=O)[C@@H]1C[C@@H]2CN1C(=O)[C@H](C(C)(C)C)NC(=O)O[C@@H]1C[C@H]1CCCCCc1c(nc3ccccc3c1O[C@@H]1C[C@H]3CC[C@@H](C1)N3CCOC)O2)C(=O)NS(=O)(=O)C1(C)CC1 , system NS3 protease (Hepatitis C virus subtype 1b, UniProt Q0ZMF1, D168Y)?
**Result** 3.16

**Query** Please tell me: log10 of IC50 of C=C[C@@H]1C[C@]1(NC(=O)[C@@H]1C[C@@H]2CN1C(=O)[C@H](C1CCCCC1)NC(=O)O[C@@H]1C[C@H]1CCCCCc1c(nc3ccccc3c1OCCCN1CC(F)C1)O2)C(=O)NS(=O)(=O)C1(C)CC1 , system NS3 protease (Hepatitis C virus subtype 1b, UniProt Q0ZMF1, D168Y)?
**Result** 2.90

* * *

target: NS3 protease (Hepatitis C virus subtype 1b, UniProt Q0ZMF1, A156T); assay: Inhibition of Hepatitis C virus genotype 1b NS3/4A protease A156T mutant assessed as substrate cleavage using Ac-C(Eu)DDMEEAbu(COO)ASK(QSY7)-amide as substrate incubated for 30 mins prior to substrate addition by time-resolved fluorescence assay
pIC50 by entry:
The scale used: pIC50 is minus the common logarithm of the concentration in molar units.

C=C[C@@H]1C[C@]1(NC(=O)[C@@H]1C[C@@H]2CN1C(=O)[C@H](C1CCCCC1)NC(=O)O[C@@H]1C[C@H]1CCCCCc1c(nc3ccccc3c1O[C@H]1C[C@H]3CC[C@@H](C1)N3CCOC)O2)C(=O)NS(=O)(=O)C1(C)CC1	9.46

Kindly consider the entry below.
**Query** Name the reported pIC50 value associated with the compound C=C[C@@H]1C[C@]1(NC(=O)[C@@H]1C[C@@H]2CN1C(=O)[C@H](C1CCCCC1)NC(=O)O[C@@H]1C[C@H]1CCCCCc1c(nc3ccccc3c1OCCCNC1CCC1)O2)C(=O)NS(=O)(=O)C1(C)CC1
**Result** 9.40

* * *

target: NS3 protease (Hepatitis C virus subtype 1b, UniProt Q0ZMF1, A156T); assay: Inhibition of Hepatitis C virus genotype 1b NS3/4A protease A156T mutant assessed as substrate cleavage using Ac-C(Eu)DDMEEAbu(COO)ASK(QSY7)-amide as substrate incubated for 30 mins prior to substrate addition by time-resolved fluorescence assay
assay-readout: pIC50
The scale used: pIC50 is minus the common logarithm of the concentration in molar units.

Some entries whose results are on file:
C=C[C@@H]1C[C@]1(NC(=O)[C@@H]1C[C@@H]2CN1C(=O)[C@H](C1CCCCC1)NC(=O)O[C@@H]1C[C@H]1CCCCCc1c(nc3ccccc3c1O[C@H]1C[C@H]3CC[C@@H](C1)N3C)O2)C(=O)NS(=O)(=O)C1(C)CC1	9.38
C=C[C@@H]1C[C@]1(NC(=O)[C@@H]1C[C@@H]2CN1C(=O)[C@H](C(C)(C)C)NC(=O)O[C@@H]1C[C@H]1CCCCCc1c(nc3ccccc3c1O[C@H]1C[C@H]3CC[C@@H](C1)N3CCOC)O2)C(=O)NS(=O)(=O)C1(C)CC1	9.32
C=C[C@@H]1C[C@]1(NC(=O)[C@@H]1C[C@@H]2CN1C(=O)[C@H](C1CCCCC1)NC(=O)O[C@@H]1C[C@H]1CCCCCc1c(nc3ccccc3c1OCCCN1CCOCC1)O2)C(=O)NS(=O)(=O)C1(C)CC1	8.51

Kindly consider the entry below.
**Query** Name the reported pIC50 value associated with the compound C=C[C@@H]1C[C@]1(NC(=O)[C@@H]1C[C@@H]2CN1C(=O)[C@H](C1CCCCC1)NC(=O)O[C@@H]1C[C@H]1CCCCCc1c(nc3ccccc3c1OC1CCN(CCOC)CC1)O2)C(=O)NS(=O)(=O)C1(C)CC1
**Result** 8.71

Source listed as ChEMBL document CHEMBL3120153.
